measurement-notes: physchem
condition: pH 1.2, simulated gastric fluid

- compound: "CCC(CC)Nc1c(Nc2ccc(Cl)c(S(=O)(=O)N(C)OC)c2O)c(=O)c1=O [free acid, reference compound]"
  unit-name: "µg/mL"
  solubility: 1

* * *

measurement-notes: pKa
Type: physicochemical

- compound: "CCC(CC)Nc1c(Nc2ccc(Cl)c(S(=O)(=O)N(C)OC)c2O)c(=O)c1=O [free acid, reference compound]"
  pKa: 5.4

These measurements were taken from patent EP2764866A1.
